experiment: Oral bioavailability in dog at 5 mg/kg; assay type: ADME, organism-based, Canis lupus familiaris; conditions: in vivo
Observation Type: bioavailability

Nc1cncc(-c2cn3ccnc3c(Nc3ccc(N4CCN(C5COC5)CC4)cc3)n2)n1 [LANRAPLENIB] :: 100%

###

test: Clearance in dog at 1 mg/kg, iv or 5 mg/kg, po; format: ADME, organism-based, Canis lupus familiaris; conditions: in vivo
Observation Type: clearance (mL/min/kg)

Nc1cncc(-c2cn3ccnc3c(Nc3ccc(N4CCN(C5COC5)CC4)cc3)n2)n1 [LANRAPLENIB] :: 5.5

###

test: Clearance in rat at 1 mg/kg, iv or 5 mg/kg, po; assay type: ADME, organism-based; conditions: in vivo
Observation Type: clearance (mL/min/kg)

Nc1cncc(-c2cn3ccnc3c(Nc3ccc(N4CCN(C5COC5)CC4)cc3)n2)n1 :: 29.5

###

experiment: AUC in human at 45 mg, po administered as single dose; type: ADME, organism-based; settings: in vivo
Observation Type: AUC (µM·h)

Nc1cncc(-c2cn3ccnc3c(Nc3ccc(N4CCN(C5COC5)CC4)cc3)n2)n1 [LANRAPLENIB] :: 6.19

###

assay: Half life in rat at 1 mg/kg, iv or 5 mg/kg, po; assay type: ADME, organism-based; conditions: in vivo
Observation Type: half-life

Nc1cncc(-c2cn3ccnc3c(Nc3ccc(N4CCN(C5COC5)CC4)cc3)n2)n1 :: 3.7 h

###

experiment: Solubility of compound at pH 7.4; format: physicochemical; conditions: buffer
Each item that follows carries a reported solubility.
Observation Type: solubility (µM)

c1cn2cc(-c3ccc4c(c3)NCCO4)nc(Nc3ccc(N4CCN(C5COC5)CC4)cc3)c2n1 :: 29
CCN1CCN(c2ccc(Nc3nc(-c4ccc5cn[nH]c5c4)cn4ccnc34)cc2)CC1 :: 10
c1cn2cc(-c3cnc4nc[nH]c4n3)nc(Nc3ccc(N4CCN(C5COC5)CC4)cc3)c2n1 :: 3
Nc1cccc(-c2cn3ccnc3c(Nc3ccc(N4CCN(C5COC5)CC4)cc3)n2)n1 :: 52

###

experiment: Clearance in monkey at 1 mg/kg, iv or 5 mg/kg, po; format: ADME, organism-based, Macaca mulatta; conditions: rhesus monkey, in vivo
Observation Type: clearance (mL/min/kg)

Nc1cncc(-c2cn3ccnc3c(Nc3ccc(N4CCN(C5COC5)CC4)cc3)n2)n1 [LANRAPLENIB] :: 9.67

###

Each item that follows carries a reported EC50.
biological target: Tyrosine-protein kinase SYK (Homo sapiens); assay: Inhibition of SYK in human Ramos cells assessed as reduction in antihuman IgM F(ab)2-induced phosphorylation of BLNK at Y96 residue preincubated for 1 hr followed by antihuman IgM F(ab)2 stimulation for 5 mins by MSD high bind plate assay; format: cell-based
Observation Type: EC50 (nM)

c1cn2cc(-c3ccc4cn[nH]c4c3)nc(Nc3ccc(N4C[C@@H]5C[C@H]4CO5)cc3)c2n1 :: 113
c1cn2cc(-c3ccc4cn[nH]c4c3)nc(Nc3ccc(N4CC5(CCOCC5)C4)cc3)c2n1 :: 82
OC[C@H]1CN(c2ccc(Nc3nc(-c4ccc5cn[nH]c5c4)cn4ccnc34)cc2)CCO1 :: 29
CCN1CCN(c2ccc(Nc3nc(-c4ccc5cn[nH]c5c4)cn4ccnc34)cc2)CC1 :: 36
c1cn2cc(-c3cnc4cc[nH]c4n3)nc(Nc3ccc(N4CCN(C5COC5)CC4)cc3)c2n1 :: 11
c1cn2cc(-c3ccc4cc[nH]c4n3)nc(Nc3ccc(N4CCN(C5COC5)CC4)cc3)c2n1 :: 18
c1cn2cc(-c3ccc4cn[nH]c4c3)nc(Nc3ccc(N4[C@H]5COC[C@@H]4COC5)cc3)c2n1 :: 33
OC1CN(c2ccc(Nc3nc(-c4ccc5cn[nH]c5c4)cn4ccnc34)cc2)C1 :: 57
Nc1cccc(-c2cn3ccnc3c(Nc3ccc(N4CCN(C5COC5)CC4)cc3)n2)n1 :: 268
CN(C)C[C@@H]1CN(c2ccc(Nc3nc(-c4ccc5cn[nH]c5c4)cn4ccnc34)cc2)CCO1 :: 109
c1cn2cc(-c3cnc4cc[nH]c4c3)nc(Nc3ccc(N4CCN(C5COC5)CC4)cc3)c2n1 :: 46
OC1CCN(c2ccc(Nc3nc(-c4ccc5cn[nH]c5c4)cn4ccnc34)cc2)CC1 :: 33
c1cn2cc(-c3ccc4cn[nH]c4c3)nc(Nc3ccc(N4C[C@H]5CC[C@@H](C4)O5)cc3)c2n1 :: 162
c1cn2cc(-c3ccc4cn[nH]c4c3)nc(Nc3ccc(N4CC5COCC5C4)cc3)c2n1 (centres undefined) :: 187
c1cn2cc(-c3ccc4cn[nH]c4c3)nc(Nc3ccc(N4CC5(COC5)C4)cc3)c2n1 :: 63
c1cn2cc(-c3ccc4c(n3)NCCO4)nc(Nc3ccc(N4CCN(C5COC5)CC4)cc3)c2n1 :: 107
c1cn2cc(-c3ccc4cn[nH]c4n3)nc(Nc3ccc(N4CCN(C5COC5)CC4)cc3)c2n1 :: 23
c1cn2cc(-c3ccc4cn[nH]c4c3)nc(Nc3ccc(N4CCN(C5COC5)CC4)cc3)c2n1 :: 53
c1cn2cc(-c3cnc4c(n3)NCCO4)nc(Nc3ccc(N4CCN(C5COC5)CC4)cc3)c2n1 :: 86

###

Each item that follows carries a reported solubility.
test: Solubility of compound at pH 7.4; format: physicochemical; conditions: buffer
Observation Type: solubility

c1cn2cc(-c3ccc4cn[nH]c4c3)nc(Nc3ccc(N4CC5COCC5C4)cc3)c2n1 (stereo not drawn) :: < 1 µM
c1cn2cc(-c3ccc4cn[nH]c4c3)nc(Nc3ccc(N4C[C@H]5CC[C@@H](C4)O5)cc3)c2n1 :: < 1 µM
C[C@@H]1CN(c2ccc(Nc3nc(-c4ccc5cn[nH]c5c4)cn4ccnc34)cc2)C[C@H](C)O1 :: < 1 µM

###

Observed IC50 for Tyrosine-protein kinase SYK (Homo sapiens, UniProt P43405), reported per entry below.
Observation Type: IC50

c1cn2cc(-c3ccc4cn[nH]c4c3)nc(Nc3ccc(N4CC5COCC5C4)cc3)c2n1 (stereo not drawn) :: 9.6 nM
O=S1(=O)CCN(c2ccc(Nc3nc(-c4ccc5cn[nH]c5c4)cn4ccnc34)cc2)CC1 :: 19.5 nM
CCN1CCN(c2ccc(Nc3nc(-c4ccc5cn[nH]c5c4)cn4ccnc34)cc2)CC1 :: 0.8 nM

###

experiment: Solubility of compound at pH 2; assay type: physicochemical; details: buffer
Each item that follows carries a reported solubility.
Observation Type: solubility

Nc1cccc(-c2cn3ccnc3c(Nc3ccc(N4CCN(C5COC5)CC4)cc3)n2)c1 :: > 100 µM
c1cn2cc(-c3ccc4nc[nH]c4c3)nc(Nc3ccc(N4CCN(C5COC5)CC4)cc3)c2n1 :: > 100 µM
Nc1cccc(-c2cn3ccnc3c(Nc3ccc(N4CCN(C5COC5)CC4)cc3)n2)n1 :: > 100 µM
COCCN1CCN(c2ccc(Nc3nc(-c4ccc5cn[nH]c5c4)cn4ccnc34)cc2)CC1 :: > 100 µM
c1cn2cc(-c3cnc4nc[nH]c4c3)nc(Nc3ccc(N4CCN(C5COC5)CC4)cc3)c2n1 :: > 100 µM
c1cn2cc(-c3cnc4cn[nH]c4c3)nc(Nc3ccc(N4CCN(C5COC5)CC4)cc3)c2n1 :: > 100 µM
c1cn2cc(-c3ccc4cn[nH]c4n3)nc(Nc3ccc(N4CCN(C5COC5)CC4)cc3)c2n1 :: > 100 µM
c1cn2cc(-c3ccc4c(c3)NCCO4)nc(Nc3ccc(N4CCN(C5COC5)CC4)cc3)c2n1 :: > 100 µM
c1cn2cc(-c3cnc4cc[nH]c4c3)nc(Nc3ccc(N4CCN(C5COC5)CC4)cc3)c2n1 :: > 100 µM
c1cn2cc(-c3ccc4cc[nH]c4c3)nc(Nc3ccc(N4CCN(C5COC5)CC4)cc3)c2n1 :: > 100 µM
c1cn2cc(-c3cnc4cc[nH]c4n3)nc(Nc3ccc(N4CCN(C5COC5)CC4)cc3)c2n1 :: > 100 µM
c1cn2cc(-c3ccc4nc[nH]c4n3)nc(Nc3ccc(N4CCN(C5COC5)CC4)cc3)c2n1 :: > 100 µM
c1cn2cc(-c3cnc4c(n3)NCCO4)nc(Nc3ccc(N4CCN(C5COC5)CC4)cc3)c2n1 :: > 100 µM
c1cn2cc(-c3cnc4nc[nH]c4n3)nc(Nc3ccc(N4CCN(C5COC5)CC4)cc3)c2n1 :: > 100 µM
c1cn2cc(-c3ccc4cn[nH]c4c3)nc(Nc3ccc(N4[C@H]5COC[C@@H]4COC5)cc3)c2n1 :: < 1 µM
Nc1cncc(-c2cn3ccnc3c(Nc3ccc(N4CCN(C5COC5)CC4)cc3)n2)n1 [LANRAPLENIB] :: > 100 µM

###

assay: Solubility of compound at pH 7.4; format: physicochemical; settings: buffer
Each item that follows carries a reported solubility.
Observation Type: solubility

c1cn2cc(-c3cnc4c(c3)NCCO4)nc(Nc3ccc(N4CCN(C5COC5)CC4)cc3)c2n1 :: > 100 µM
c1cn2cc(-c3ccc4cn[nH]c4c3)nc(Nc3ccc(N4CCN(C5COC5)CC4)cc3)c2n1 :: < 1 µM
c1cn2cc(-c3ccc4cc[nH]c4n3)nc(Nc3ccc(N4CCN(C5COC5)CC4)cc3)c2n1 :: < 1 µM
COCCN1CCN(c2ccc(Nc3nc(-c4ccc5cn[nH]c5c4)cn4ccnc34)cc2)CC1 :: < 1 µM
c1cn2cc(-c3ccc4cn[nH]c4c3)nc(Nc3ccc(N4CC5(COC5)C4)cc3)c2n1 :: < 1 µM
